system: L1210 leukemia ip in BDF1 mice, survival T/C; experiment: NCI In Vivo Anticancer Drug Screen. Data for tumor model L1210 Leukemia (intraperitoneal) in B6D2F1 (BDF1) mice; details: endpoint: mean survival time; dose: 100.0 mg/kg/injection; schedule: Q01DX001 (ip); vehicle: carboxymethylcellulose (CMC); higher = longer survival
Toxic doses and inconclusive results are not listed.
test readout: T/C

Some solved cases for reference:
{"compound": "CSc1cc2c(cc1NC(C)=O)C(=O)c1cc(F)ccc1-2", "T/C": "98 % of control"}
{"compound": "CC(=O)Nc1ccc(C(=O)O)cc1[N+](=O)[O-]", "T/C": "99 % of control"}
{"compound": "O=C1CCC(=O)N1Nc1ccccc1", "T/C": "96 % of control"}

// T/C lookup, compound = N#CCC(=O)NCc1ccncc1 , result: 95 % of control

Notebook: Nc1nc(Cl)nc2c1ncn2C1OC(CO)C(O)C1O (stereo not drawn) , T/C read as 96 % of control

The compound listed as Cc1cc([N+](=O)[O-])c(C)cc1NC(=O)c1ccccc1 shows T/C equal to 91 % of control

The reported value for CCCCCCCCCCCCCCCC(=O)N(CCC)CCC in terms of T/C is 98 % of control

Documented T/C of Cc1ccc(S(=O)(=O)N2C=Cc3ccccc3CC2)cc1 : 107 % of control

For record CN1CCCC(OC(=O)c2cc3ccccc3s2)C1 (stereo not drawn) the listed T/C is 101 % of control

// T/C value for CNC(=O)Oc1ccccc1-c1ccccc1 : 100 % of control
